# System: U-87-MG (Glioblastoma)
# methodDescription: combination Emax (second highest fraction inhibited in the dose matrix, 72 h); higher = more inhibition; extreme values may be limits of the assay
propertyName: combination Emax

Past entries and their recorded results:
>>> result("Cc1c2c(nn1C)CSCc1cc(n(C)n1)CSc1cc(c3ccccc3c1)OCCCc1c(C(=O)O)n(C)c3c-2c(Cl)ccc13 [AZD5991] + C[C@@H]1COCCN1C2=NC(=NC(=C2)C3(CC3)[S@](=N)(=O)C)C4=C5C=CNC5=NC=C4 [AZD6738] (first compound max 1 µM, 7x7, partner max 10 µM)")
0.494
>>> result("Cc1c2c(nn1C)CSCc1cc(n(C)n1)CSc1cc(c3ccccc3c1)OCCCc1c(C(=O)O)n(C)c3c-2c(Cl)ccc13 [AZD5991] + C1CN(CCC1(C(=O)N[C@@H](CCO)C2=CC=C(C=C2)Cl)N)C3=NC=NC4=C3C=CN4 [Capivasertib] (first compound max 1 µM, 7x7, partner max 3 µM)")
0.372

Continue with the compound presented below.
Q. Consider the compound shown here: CC1(C)CCC(CN2CCN(c3ccc(C(=O)NS(=O)(=O)c4ccc(NCC5CCOCC5)c([N+](=O)[O-])c4)c(Oc4cnc5[nH]ccc5c4)c3)CC2)=C(c2ccc(Cl)cc2)C1 [Venetoclax] + C=CCn1c(=O)c2cnc(Nc3ccc(N4CCN(C)CC4)cc3)nc2n1-c1cccc(C(C)(C)O)n1 [AZD1775] (first compound max 1 µM, partner max 1 µM) What is its recorded combination Emax?
A. 0.265

* * *

# Test system: A704 (Kidney Carcinoma);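 also: after 72 h of two-drug dosing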
# methodDescription: Bliss excess, mean over the matrix (fraction); higher = more synergy
Below, each of the compounds is paired with its reported Bliss excess value.
Reply with just the number.

Past entries and their recorded results:
>>> quantitativereadout("Cc1cc2ncnn2cc1Nc1ncc2c(n1)n(C1CCOCC1)c(=O)n2C [AZD7648] + C[C@@H]1COCCN1C2=NC(=NC(=C2)C3(CC3)[S@](=N)(=O)C)C4=C5C=CNC5=NC=C4 [AZD6738] (first compound max 10 µM, 7x7, partner max 10 µM)")
0.0177
>>> quantitativereadout("Cc1cc2ncnn2cc1Nc1ncc2c(n1)n(C1CCOCC1)c(=O)n2C [AZD7648] + O=C(c1cc(Cc2n[nH]c(=O)c3ccccc23)ccc1F)N1CCN(C(=O)C2CC2)CC1 [Olaparib] (first compound max 10 µM, 7x7, partner max 10 µM)")
-0.0821
>>> quantitativereadout("CCN(CCO)CCCOc1ccc2c(Nc3cc(CC(=O)Nc4cccc(F)c4)[nH]n3)ncnc2c1 [AZD2811] + C=CCn1c(=O)c2cnc(Nc3ccc(N4CCN(C)CC4)cc3)nc2n1-c1cccc(C(C)(C)O)n1 [AZD1775] (first compound max 1 µM, partner max 1 µM)")
-0.0547

Continue with the compound presented below.
Q. Record lookup: for A704 (Kidney Carcinoma), what Bliss excess belongs to CN(C)CCCOc1ccc(-c2ccc3ncc4c(c3c2)n(C2CCOCC2)c(=O)n4C)cn1 [AZD0156] + C[C@@H]1COCCN1C2=NC(=NC(=C2)C3(CC3)[S@](=N)(=O)C)C4=C5C=CNC5=NC=C4 [AZD6738] (first compound max 1 µM, 7x7, partner max 10 µM) ?
A. -0.0067

* * *

Below, each of the compounds is paired with its reported combination Emax value.
# System: PF-382 (T-Lymphoblastic Leukemia)
# methodDescription: combination Emax (second highest fraction inhibited in the dose matrix, 72 h); higher = more inhibition; extreme values may be limits of the assay
Reply with just the number.

Past entries and their recorded results:
>>> quantitativereadout("C[C@@H](c1ccc2nccn2c1)n1nnc2ncc(-c3cnn(C)c3)nc21 [Savolitinib] + Cc1c2c(nn1C)CSCc1cc(n(C)n1)CSc1cc(c3ccccc3c1)OCCCc1c(C(=O)O)n(C)c3c-2c(Cl)ccc13 [AZD5991] (first compound max 1 µM, 7x7, partner max 1 µM)")
0.134
>>> quantitativereadout("Cc1c2c(nn1C)CSCc1cc(n(C)n1)CSc1cc(c3ccccc3c1)OCCCc1c(C(=O)O)n(C)c3c-2c(Cl)ccc13 [AZD5991] + C1CN(CCC1(C(=O)N[C@@H](CCO)C2=CC=C(C=C2)Cl)N)C3=NC=NC4=C3C=CN4 [Capivasertib] (first compound max 1 µM, 7x7, partner max 3 µM)")
0.477
>>> quantitativereadout("CC(=O)c1c(C)c2cnc(Nc3ccc(N4CCNCC4)cn3)nc2n(C2CCCC2)c1=O [Palbociclib] + Cn1cnc2c(F)c(Nc3ccc(Br)cc3Cl)c(C(=O)NOCCO)cc21 [Selumetinib] (first compound max 10 µM, 7x7, partner max 10 µM)")
0.761
>>> quantitativereadout("CC1(C)CCC(CN2CCN(c3ccc(C(=O)NS(=O)(=O)c4ccc(NCC5CCOCC5)c([N+](=O)[O-])c4)c(Oc4cnc5[nH]ccc5c4)c3)CC2)=C(c2ccc(Cl)cc2)C1 [Venetoclax] + Cn1cnc2c(F)c(Nc3ccc(Br)cc3Cl)c(C(=O)NOCCO)cc21 [Selumetinib] (first compound max 1 µM, 7x7, partner max 3 µM)")
0.18
>>> quantitativereadout("CC1(C)CCC(CN2CCN(c3ccc(C(=O)NS(=O)(=O)c4ccc(NCC5CCOCC5)c([N+](=O)[O-])c4)c(Oc4cnc5[nH]ccc5c4)c3)CC2)=C(c2ccc(Cl)cc2)C1 [Venetoclax] + CN(C)CCCOc1ccc(-c2ccc3ncc4c(c3c2)n(C2CCOCC2)c(=O)n4C)cn1 [AZD0156] (first compound max 1 µM, 7x7, partner max 1 µM)")
0.256

Q. Consider the compound shown here: CS(=O)(=O)CCNCc1ccc(-c2ccc3ncnc(Nc4ccc(OCc5cccc(F)c5)c(Cl)c4)c3c2)o1 [Lapatinib] + C[C@@H](Oc1cc(-c2cnn(C3CCNCC3)c2)cnc1N)c1c(Cl)ccc(F)c1Cl [Crizotinib] (first compound max 10 µM, 7x7, partner max 10 µM) What is its recorded combination Emax?
A. 0.978

Q. Consider the compound shown here: COc1nnc2ccc(N3CCC(c4ccc(OCCN5CCN(C)C(=O)[C@H]5C)cc4)CC3)nn12 [AZD5153] + CCN(CCO)CCCOc1ccc2c(Nc3cc(CC(=O)Nc4cccc(F)c4)[nH]n3)ncnc2c1 [AZD2811] (first compound max 1 µM, 7x7, partner max 1 µM) What is its recorded combination Emax?
A. 0.98

Q. Consider the compound shown here: C[C@@H](c1ccc2nccn2c1)n1nnc2ncc(-c3cnn(C)c3)nc21 [Savolitinib] + CC1(C)CCC(CN2CCN(c3ccc(C(=O)NS(=O)(=O)c4ccc(NCC5CCOCC5)c([N+](=O)[O-])c4)c(Oc4cnc5[nH]ccc5c4)c3)CC2)=C(c2ccc(Cl)cc2)C1 [Venetoclax] (first compound max 1 µM, 7x7, partner max 1 µM) What is its recorded combination Emax?
A. 0.134

* * *

# System: HC-1 (Other Blood Carcinomas)
# methodDescription: combination Emax (second highest fraction inhibited in the dose matrix, 72 h); higher = more inhibition; extreme values may be limits of the assay
propertyName: combination Emax
Reply with just the number.

Past entries and their recorded results:
>>> quantitativereadout("COc1nnc2ccc(N3CCC(c4ccc(OCCN5CCN(C)C(=O)[C@H]5C)cc4)CC3)nn12 [AZD5153] + C[C@@H]1COCCN1C2=NC(=NC(=C2)C3(CC3)[S@](=N)(=O)C)C4=C5C=CNC5=NC=C4 [AZD6738] (first compound max 1 µM, 7x7, partner max 10 µM)")
0.713
>>> quantitativereadout("CN(CCO)CC[C@H](CSc1ccccc1)Nc1ccc(S(=O)(=O)NC(=O)c2ccc(N3CCC([C@@H](O)c4ccccc4-c4ccc(Cl)cc4)CC3)cc2)cc1S(=O)(=O)C(F)(F)F [AZD4320] + Cn1cnc2c(F)c(Nc3ccc(Br)cc3Cl)c(C(=O)NOCCO)cc21 [Selumetinib] (first compound max 1 µM, 7x7, partner max 3 µM)")
0.972

Continue with the molecule presented below.
Q. Consider the molecule shown here: Cn1cnc2c(F)c(Nc3ccc(Br)cc3Cl)c(C(=O)NOCCO)cc21 [Selumetinib] + CCN(CCO)CCCOc1ccc2c(Nc3cc(CC(=O)Nc4cccc(F)c4)[nH]n3)ncnc2c1 [AZD2811] (first compound max 10 µM, 7x7, partner max 1 µM) What is its recorded combination Emax?
A. 0.702

* * *

Below, each of the compounds is paired with its reported combination Emax value.
# System: TGBC11TKB (Gastric Carcinoma)
# methodDescription: combination Emax (second highest fraction inhibited in the dose matrix, 72 h); higher = more inhibition; extreme values may be limits of the assay
Reply with just the number.

Past entries and their recorded results:
>>> quantitativereadout("CC1(C)CCC(CN2CCN(c3ccc(C(=O)NS(=O)(=O)c4ccc(NCC5CCOCC5)c([N+](=O)[O-])c4)c(Oc4cnc5[nH]ccc5c4)c3)CC2)=C(c2ccc(Cl)cc2)C1 [Venetoclax] + COc1cc(Nc2ncc3c(n2)-c2ccc(Cl)cc2C(c2c(F)cccc2OC)=NC3)ccc1C(=O)O [Alisertib] (first compound max 1 µM, 7x7, partner max 10 µM)")
0.387
>>> quantitativereadout("Cc1nc(Nc2ncc(C(=O)Nc3c(C)cccc3Cl)s2)cc(N2CCN(CCO)CC2)n1 [Dasatinib] + CC(=O)Nc1cccc(-n2c(=O)n(C3CC3)c(=O)c3c(Nc4ccc(I)cc4F)n(C)c(=O)c(C)c32)c1 [Trametinib] (first compound max 2 µM, 7x7, partner max 1 µM)")
0.492
>>> quantitativereadout("CN(CCO)CC[C@H](CSc1ccccc1)Nc1ccc(S(=O)(=O)NC(=O)c2ccc(N3CCC([C@@H](O)c4ccccc4-c4ccc(Cl)cc4)CC3)cc2)cc1S(=O)(=O)C(F)(F)F [AZD4320] + CS(=O)(=O)CCNCc1ccc(-c2ccc3ncnc(Nc4ccc(OCc5cccc(F)c5)c(Cl)c4)c3c2)o1 [Lapatinib] (first compound max 1 µM, 7x7, partner max 10 µM)")
0.674
>>> quantitativereadout("CN(CCO)CC[C@H](CSc1ccccc1)Nc1ccc(S(=O)(=O)NC(=O)c2ccc(N3CCC([C@@H](O)c4ccccc4-c4ccc(Cl)cc4)CC3)cc2)cc1S(=O)(=O)C(F)(F)F [AZD4320] + Nc1ccn([C@@H]2O[C@H](CO)[C@@H](O)C2(F)F)c(=O)n1 [Gemcitabine] (first compound max 1 µM, 7x7, partner max 0.3 µM)")
0.882
>>> quantitativereadout("Cn1cnc2c(F)c(Nc3ccc(Br)cc3Cl)c(C(=O)NOCCO)cc21 [Selumetinib] + CC(C)n1c(=O)n(C)c2cnc3cc(F)c(-c4ccc(OCCCN5CCCCC5)nc4)cc3c21 [AZD1390] (first compound max 10 µM, 7x7, partner max 0.3 µM)")
0.507

Q. Record lookup: for TGBC11TKB (Gastric Carcinoma), what combination Emax belongs to Cc1cc2ncnn2cc1Nc1ncc2c(n1)n(C1CCOCC1)c(=O)n2C [AZD7648] + O=C(c1cc(Cc2n[nH]c(=O)c3ccccc23)ccc1F)N1CCN(C(=O)C2CC2)CC1 [Olaparib] (first compound max 10 µM, 7x7, partner max 10 µM) ?
A. 0.269

Q. Record lookup: for TGBC11TKB (Gastric Carcinoma), what combination Emax belongs to COc1nnc2ccc(N3CCC(c4ccc(OCCN5CCN(C)C(=O)[C@H]5C)cc4)CC3)nn12 [AZD5153] + CCN(CCO)CCCOc1ccc2c(Nc3cc(CC(=O)Nc4cccc(F)c4)[nH]n3)ncnc2c1 [AZD2811] (first compound max 1 µM, 7x7, partner max 1 µM) ?
A. 0.311
